Target: HLA-DR DRB4*0101 (human)
Test: competition with 125I probe, purified MHC II
parameter.measured: pIC50
By convention, pIC50 is the negative base-10 log of a molar concentration.

*Q* Request the reported pIC50 associated with DTPYLDITYHFVMQRLPL [Torp. Ach Rec. 195-212]
*A* 6.58

*Q* Now consider YLDPLIRGLLARPAKLQV [NP7 (TPO Y535-551)] and answer again.
*A* 6.47
